Source listed as patent US9409952B2.

Assay: Metabolic stability in human hepatic microsome
Assay type: in vitro ADME
Conditions: microsomes, pH 7.4; human hepatic microsome, NADPH(+); read-out: CL NADPH(+)
Starred links: 1 amine or outer side, 2 acyl side, 3 side chain; linkers in the order of their positions; H or OH if unused. Positions of bridges follow the written chain, without caps; N, C: chain ends. Non-standard residues stand in square brackets, D forms with d. Residues, ends and D or L forms follow the SMILES beside them. *: point of attachment. NMeF = CN[C@@H](Cc1ccccc1)C(=O)O; NMeβAla = CN(CCC(=O)[*:2])[*:1]; NMeL = CN[C@@H](CC(C)C)C(=O)O; NMeV = CN[C@H](C(=O)O)C(C)C; NMeA = CN[C@@H](C)C(=O)O; Piperidide = C1CCN(*)CC1; dNMeA = CN[C@H](C)C(=O)O
readoutKind: microsomal CLint at 1 uM

CC(C)C[C@H]1C(=O)N[C@@H]([C@@H](C)O)C(=O)N[C@@H](C)C(=O)N(C)[C@@H](Cc2ccccc2)C(=O)N[C@H](C(=O)N2CCCCC2)CC(=O)N(C)[C@@H](C)C(=O)N(C)[C@@H](CC(C)C)C(=O)N[C@@H](Cc2ccccc2)C(=O)N1C [DP-700] ([NMeA][NMeL]F[NMeL]TA[NMeF]D-Piperidide; lactam N-8)
398 µL/min/mg
CC(C)C[C@@H]1NC(=O)[C@H]([C@@H](C)O)NC(=O)[C@H](CC(C)C)N(C)C(=O)[C@H](C)N(C)C(=O)[C@H](Cc2ccccc2)N(C)C(=O)[C@H](Cc2ccccc2)NC(=O)[C@H](CC(C)C)N(C)C(=O)CCN(C)C(=O)C[C@@H](C(=O)N(C)[C@@H](Cc2ccccc2)C(=O)N[C@@H](C)C(=O)N2CCCCC2)NC(=O)[C@H](CC(C)C)N(C)C1=O [DP-351] ([NMeβAla][NMeL]F[NMeF][NMeA][NMeL]TL[NMeL]D[NMeF]A-Piperidide; lactam N-10)
51 µL/min/mg

Supply microsomal CLint at 1 uM value. Item: CC(C)C[C@H]1C(=O)N[C@@H]([C@@H](C)O)C(=O)NCC(=O)N[C@@H](C(C)C)C(=O)N[C@H](C(=O)N(C)[C@@H](Cc2ccccc2)C(=O)N[C@@H](C)C(=O)N2CCCCC2)CC(=O)N(C)[C@H](C)C(=O)N(C)[C@@H](C(C)C)C(=O)N[C@@H](Cc2ccccc2)C(=O)N(C)[C@@H](Cc2ccccc2)C(=O)N(C)[C@@H](C)C(=O)N1C [DP-356] ([dNMeA][NMeV]F[NMeF][NMeA][NMeL]TGVD[NMeF]A-Piperidide; lactam N-10)
66 µL/min/mg

###

Can you tell me microsomal CLint at 1 uM for the items I'm about to list?
Assay: Metabolic stability in mouse hepatic microsome
Assay type: in vitro ADME
Settings: male, mouse, liver microsomes, pH 7.4; 0.5 mg protein/mL, 1 uM, 30 minutes, with NADPH; read-out: Hepatic Microsome CLh, int (Mouse) In the presence of NADPH
Positions of bridges follow the written chain, without caps; N, C: chain ends. Non-standard residues stand in square brackets, D forms with d. Residues, ends and D or L forms follow the SMILES beside them. *: point of attachment. NMeF = CN[C@@H](Cc1ccccc1)C(=O)O; NMeI = CC[C@H](C)[C@H](NC)C(=O)O; NMeL = CN[C@@H](CC(C)C)C(=O)O; NMeA = CN[C@@H](C)C(=O)O; Piperidide = C1CCN(*)CC1; Sar = CNCC(=O)O; tBu = CC(C)(C)*
Give bare numbers, in µL/min/mg.

CC(C)C[C@H]1C(=O)N[C@@H](COC(C)(C)C)C(=O)N[C@H](C(=O)N2CCCCC2)CSCC(=O)N(C)[C@@H](C)C(=O)N[C@@H](Cc2ccccc2)C(=O)N(C)[C@@H](CC(C)C)C(=O)N[C@@H]([C@@H](C)O)C(=O)N(C)CC(=O)N1C [Compound P-106] ({CH2CO}-[NMeA]F[NMeL]T[Sar][NMeL]S(tBu)C-Piperidide; thioether N-8)
151
CC[C@H](C)[C@H]1C(=O)N[C@H](C(=O)N2CCCCC2)CSCC(=O)N(C)[C@@H](C)C(=O)N[C@@H](Cc2ccccc2)C(=O)N(C)[C@@H](CC(C)C)C(=O)N[C@@H]([C@@H](C)O)C(=O)N(C)CC(=O)N(C)[C@@H](CC(C)C)C(=O)N[C@@H](COC(C)(C)C)C(=O)N1C [Compound P-111] ({CH2CO}-[NMeA]F[NMeL]T[Sar][NMeL]S(tBu)[NMeI]C-Piperidide; thioether N-9)
76.4

Tell me measured microsomal CLint at 1 uM for CC(C)C[C@H]1C(=O)N[C@@H](COC(C)(C)C)C(=O)N[C@H](C(=O)N2CCCCC2)CSCC(=O)N(C)[C@@H](Cc2ccccc2)C(=O)N(C)[C@@H](C)C(=O)N(C)[C@@H](Cc2ccccc2)C(=O)N(C)[C@@H](CC(C)C)C(=O)N[C@@H]([C@@H](C)O)C(=O)N(C)CC(=O)N1C [Compound P-108] ({CH2CO}-[NMeF][NMeA][NMeF][NMeL]T[Sar][NMeL]S(tBu)C-Piperidide; thioether N-9) please.
72.3

###

Record form. Attribute: Papp at 18 hours, 50 µM. Fill in for each entry.
Assay: PAMPA (parallel artificial membrane permeability assay)
Type: in vitro ADME
Conditions: PAMPA, pH 6.5
Positions of bridges follow the written chain, without caps; N, C: chain ends. Non-standard residues stand in square brackets, D forms with d. Residues, ends and D or L forms follow the SMILES beside them. *: point of attachment. NMeF = CN[C@@H](Cc1ccccc1)C(=O)O; NMeI = CC[C@H](C)[C@H](NC)C(=O)O; NMeL = CN[C@@H](CC(C)C)C(=O)O; NMeV = CN[C@H](C(=O)O)C(C)C; NMeA = CN[C@@H](C)C(=O)O; Piperidide = C1CCN(*)CC1; dNMeA = CN[C@H](C)C(=O)O; β3hA = C[C@H](N)CC(=O)O; Sar = CNCC(=O)O; tBu = CC(C)(C)*
One number for each entry, in ×10⁻⁶ cm/s.

CC[C@H](C)[C@@H]1NC(=O)[C@H](Cc2ccccc2)N(C)C(=O)[C@H](C)N(C)C(=O)[C@H]([C@@H](C)O)NC(=O)[C@@H](C)N(C)C(=O)C[C@@H](C(=O)N2CCCCC2)NC(=O)[C@H](CC(C)C)N(C)C(=O)[C@H](C)N(C)C(=O)[C@H](Cc2ccccc2)NC(=O)[C@H](C(C)C)N(C)C(=O)[C@@H]2CCCN2C1=O [DP-164] ([dNMeA]T[NMeA][NMeF]IP[NMeV]F[NMeA][NMeL]D-Piperidide; lactam N-11)
30

Need Papp at 18 hours, 50 µM for each of these compounds.
1. C=C1CCC(=O)N(C)[C@@H](Cc2ccccc2)C(=O)N(C)[C@@H](CC(C)C)C(=O)N[C@@H]([C@@H](C)CC)C(=O)N(C)[C@@H](C)C(=O)N(C)[C@@H](Cc2ccccc2)C(=O)N[C@@H]([C@@H](C)O)C(=O)N(C)[C@@H](C)C(=O)N(C)[C@@H](CC(C)C)C(=O)N[C@H](C(=O)N2CCCCC2)Cc2cccc1c2 [DP-834]
2. CC[C@H](C)[C@H]1C(=O)N[C@@H]([C@@H](C)O)C(=O)N(C)CC(=O)N[C@H](C(=O)N2CCCCC2)CC(=O)N[C@H](C)C(=O)N[C@@H](CC(C)C)C(=O)N(C)[C@@H](CC(C)C)C(=O)N(C)[C@@H](Cc2ccccc2)C(=O)N[C@@H](C)C(=O)N(C)[C@@H](Cc2ccccc2)C(=O)N(C)[C@@H](CC(C)C)C(=O)N1C [DP-97] ([dA]L[NMeL][NMeF]A[NMeF][NMeL][NMeI]T[Sar]D-Piperidide; lactam N-11)
3. CC[C@H](C)[C@H]1C(=O)N(C)[C@@H](C)C(=O)N(C)[C@@H](CC(C)C)C(=O)N[C@@H](COC(C)(C)C)C(=O)N(C)[C@@H](CC(C)C)C(=O)N[C@@H](C)CC(=O)N(C)[C@@H](C)C(=O)N(C)[C@@H](Cc2ccccc2)C(=O)N[C@@H](CC(C)C)C(=O)N(C)[C@@H](CC(C)C)C(=O)N[C@@H]([C@@H](C)O)C(=O)N[C@@H](Cc2ccccc2)C(=O)N1C [DP-761] (cyclo(F[NMeI][NMeA][NMeL]S(tBu)[NMeL][β3hA][NMeA][NMeF]L[NMeL]T))
4. CC[C@H](C)[C@H]1C(=O)N[C@H](C(=O)N(C)[C@@H](Cc2ccccc2)C(=O)N(C)[C@@H](Cc2ccccc2)C(=O)N[C@@H](C)C(=O)N2CCCCC2)CC(=O)N(C)CC(=O)N(C)[C@@H](C)C(=O)N[C@@H]([C@@H](C)O)C(=O)N(C)[C@@H](C)C(=O)N(C)[C@@H](CC(C)C)C(=O)N(C)[C@@H](Cc2ccccc2)C(=O)N[C@@H](C(C)C)C(=O)N(C)[C@@H](CC(C)C)C(=O)N1C [DP-302] ([Sar][NMeA]T[NMeA][NMeL][NMeF]V[NMeL][NMeI]D[NMeF][NMeF]A-Piperidide; lactam N-10)

[14, 27, 9.2, 18]
